Measured GI50 accompanies every entry in the list below.
System: MDA-N
Experiment: NCI tumour cell line growth inhibition, 48 h
Calls of active or inactive are those of the source. No stated cut-off is given here; in the data, active = GI50 up to about 1.1 µM and inactive = higher.

The following compounds have reported results that may help.
[
  {
    "Compound": "COc1cc(C2S/C(=C/c3ccccc3)C(=O)N2c2ccc([N+](=O)[O-])cc2)cc(OC)c1OC (stereo unspecified)",
    "GI50": "> 56.8 µM (inactive)"
  },
  {
    "Compound": "OC1(c2ccc(Cl)cc2)c2ccccc2C2=NCc3ccccc3CN21 (stereo unspecified)",
    "GI50": "12.9 µM (inactive)"
  },
  {
    "Compound": "COc1cc(CNc2c3ccccc3nc3ccccc23)cc(OC)c1OC",
    "GI50": "2.76 µM (inactive)"
  },
  {
    "Compound": "CCOC(=O)C1=C(OS(=O)(=O)C(F)(F)F)CCCC1",
    "GI50": "> 100 µM (inactive)"
  },
  {
    "Compound": "O=C1Nc2ccc(Br)cc2/C1=N/c1ccc2c(c1)OCO2",
    "GI50": "15.7 µM (inactive)"
  }
]

May I ask what GI50 has been recorded for O=C(NC1=NC2C=CC([N+](=O)[O-])=CC2S1)C(=O)Nn1c(S)nc2ccccc2c1=O (stereo unspecified) ? > 100 µM (inactive)

May I ask what GI50 has been recorded for Cc1cn2c(/C=C3/C(=O)Nc4ccccc43)c(-c3ccccc3)nc2s1 ? > 100 µM (inactive)

May I ask what GI50 has been recorded for Cc1nc2c(cc1C(=O)NN)c(=O)n(C)c(=O)n2C ? > 100 µM (inactive)

* * *

Tested on: NCI-H226
Assay: NCI tumour cell line growth inhibition, 48 h
Calls of active or inactive are those of the source. Cut-off read from the data, not from the text of the source: active = GI50 up to about 1.1 µM and inactive = higher.
Measured GI50 accompanies every entry in the list below.

[
  {
    "Compound": "NC(=O)C1=CC2C3C=CC2(O)C(=O)OC3O1 (stereo unspecified)",
    "Measured Target": "NCI-H226",
    "GI50": "2.31 µM (inactive)"
  },
  {
    "Compound": "O=C(Nn1cc(F)c(=O)[nH]c1=O)C12CC3CC(CC(C3)C1)C2",
    "Measured Target": "NCI-H226",
    "GI50": "38.9 µM (inactive)"
  },
  {
    "Compound": "Cc1ccc(NC(=O)c2cc3cc(/N=N/c4ccccc4C(=O)O)ccc3oc2=O)cc1",
    "Measured Target": "NCI-H226",
    "GI50": "39.4 µM (inactive)"
  }
]

# query: GI50 | item COc1ccc(N2C(=O)C(=O)C3(CCCCC3)C2=O)c(OC)c1OC | system: NCI-H226 > 100 µM (inactive)

# query: GI50 | item CN1C(=O)CN(NC(=O)C2=C(O)c3ccc(Br)cc3S(=O)(=O)N2)C1=S | system: NCI-H226 > 100 µM (inactive)

# query: GI50 | item O=C(NC1=NC2C=CC([N+](=O)[O-])=CC2S1)C(=O)Nn1c(S)nc2ccccc2c1=O (stereo unspecified) | system: NCI-H226 18.8 µM (inactive)

# query: GI50 | item NS(=O)(=O)c1ccc(NC(=O)c2cccn3c(=O)c4ccccc4nc23)cc1 | system: NCI-H226 > 100 µM (inactive)

# query: GI50 | item COC1=CC(=O)N(C(=O)C2CSC(C(CO)NC(=O)c3csc(/C=N/O)n3)=N2)C1 (stereo unspecified) | system: NCI-H226 36.6 µM (inactive)

# query: GI50 | item CCOC1NC(=O)c2ccccc21 (stereo unspecified) | system: NCI-H226 > 100 µM (inactive)

# query: GI50 | item COc1cc(-c2nccc3cc(OC)c(OC)cc23)ccc1O | system: NCI-H226 > 100 µM (inactive)

# query: GI50 | item CC(NC1CCCC[C@H]1O)c1ccccc1 (stereo partly specified) | system: NCI-H226 > 100 µM (inactive)

* * *

System: 786-0
Assay: NCI tumour cell line growth inhibition, 48 h
The source made the active and inactive calls. Rule as the data show it: active = GI50 up to about 1.1 µM and inactive = higher.
Property Measured: GI50

The following molecules have reported results that may help.
[
  {
    "Molecule": "O=C1CCCCC/C1=C\\c1ccc(F)cc1",
    "Result": "> 100 µM (inactive)"
  },
  {
    "Molecule": "COC(=O)C(=O)C(C(=O)C=C(C)C)C(=O)C(=O)Nc1ccc(Cl)cc1C (centres undefined)",
    "Result": "> 100 µM (inactive)"
  }
]

The record that follows has no GI50 shown yet.
May I ask what GI50 has been recorded for C[C@]12CC[C@H]3[C@@H](CC=C4C[C@@H](N5CCCC5)CC[C@@]43C)[C@@H]1C[C@H](N1CCOCC1)[C@@H]2O ? > 100 µM (inactive)

* * *

Measured GI50 accompanies every entry in the list below.
System: 786-0
Test: NCI tumour cell line growth inhibition, 48 h
Active and inactive are the calls of the source. Rule as the data show it: active = GI50 up to about 1.1 µM and inactive = higher.

[
  {
    "Compound": "COC(=O)C(Cc1ccc2c(c1)CCCC2)Cc1cc2c(cc1C(O)OC)CCC2 (stereo not given)",
    "Result": "33.3 µM (inactive)"
  },
  {
    "Compound": "COc1cc(C(C)O)c[n+](CCC2CNc3ccccc32)c1 (stereo not given)",
    "Result": "> 100 µM (inactive)"
  }
]

May I ask what GI50 has been recorded for C#CC(O)/C=C/C(O)CCCC(O)CC#CC(O)C#CCCCCC(O)/C=C/CCCCCC(=O)CCCCCCCCCCCCCC(O)C(O)C#CC(=O)O (stereo not given) ? > 25 µM (inactive)

May I ask what GI50 has been recorded for CCOc1ccccc1/N=N/c1ccc2oc(=O)c(C(=O)Nc3cccc(C)c3)cc2c1 ? 34 µM (inactive)

May I ask what GI50 has been recorded for O[C@@]1(C#Cc2ccc3c(c2)OCO3)CCC[C@H]1NCc1ccccc1 ? 17.5 µM (inactive)

* * *

System: CCRF-CEM
Assay: NCI tumour cell line growth inhibition, 48 h
Calls of active or inactive are those of the source. No stated cut-off is given here; in the data, active = GI50 up to about 1.1 µM and inactive = higher.
Your reply should match one of these outcome classes. 1 (active), 0 (inactive)

[
  {
    "Compound": "COc1cc2c(c(OC)c1)C(=O)O[C@H](C)CCCC/C=C/C2",
    "Assigned Class": 0
  },
  {
    "Compound": "Cc1ccc(S(=O)(=O)N/C(=N\\O)Nc2ccc(Cl)c(Cl)c2)cc1",
    "Assigned Class": 0
  },
  {
    "Compound": "Cc1cc(O)cc2oc(=O)c3c(O)cc(O)cc3c12 [ALTERNARIOL]",
    "Assigned Class": 0
  },
  {
    "Compound": "Clc1ccc(/C(=C/c2ccccc2)Cn2ccnc2)cc1",
    "Assigned Class": 0
  },
  {
    "Compound": "CN(C)c1nnnn1-c1c(N)n(C)c(=O)n(C)c1=O",
    "Assigned Class": 0
  },
  {
    "Compound": "O=[N+]([O-])c1ccccc1/C=N/C12CC3CC(CC(C3)C1)C2",
    "Assigned Class": 0
  }
]

How was CCOC(=O)c1ccc(Nc2nc3cc(C(F)(F)F)ccc3nc2C(=O)OCC)cc1 classified in this test? 0

How was CC(C)(C)c1ccc(-c2nc3ccc([N+](=O)[O-])cc3c(=O)o2)cc1 classified in this test? 0

How was COc1ccc(N[S+]([O-])c2c(C)cc(C)cc2C)cc1 (stereo unspecified) classified in this test? 0

How was c1ccc(CNC2CC(NCc3ccccn3)CC(NCc3ccccn3)C2)nc1 (stereo unspecified) classified in this test? 0

How was CCOc1ccc(-c2nc(-c3oc4ccccc4c(=O)c3OC(C)=O)cs2)cc1 classified in this test? 0

How was c1ccc(-c2c[nH]c(SC(c3ccccc3)c3ccccc3)n2)cc1 classified in this test? 0

* * *

Tested on: SW-620
Test: NCI tumour cell line growth inhibition, 48 h
Calls of active or inactive are those of the source. No stated cut-off is given here; in the data, active = GI50 up to about 1.1 µM and inactive = higher.
Your reply should match one of these outcome classes. active, inactive

Would you please look over these solved cases?
[
  {
    "Compound": "C#CCNC(=O)N(CC#C)N=O",
    "Assigned Class": "inactive"
  },
  {
    "Compound": "NS(=O)(=O)c1ccc(NC(=O)c2cccn3c(=O)c4ccccc4nc23)cc1",
    "Assigned Class": "inactive"
  },
  {
    "Compound": "O=S(=O)(c1ccccc1)C1CC(c2nc3ccccc3[nH]2)=NO1 (centres undefined)",
    "Assigned Class": "inactive"
  },
  {
    "Compound": "CCOC(=O)c1nc2cc(C(F)(F)F)ccc2nc1Nc1ccc(C(=O)OC)s1",
    "Assigned Class": "inactive"
  },
  {
    "Compound": "CC1(C)CC(=O)c2c(nc(SSc3nc4c(c(-c5ccc(Br)cc5)c3C#N)C(=O)CC(C)(C)C4)c(C#N)c2-c2ccc(Br)cc2)C1",
    "Assigned Class": "inactive"
  }
]

How was CCOP(=O)(COCCn1nc(Br)c(=O)[nH]c1=O)OCC classified in this test? inactive

How was CC1=NN(c2nc(N)nc(/C(C#N)=C\c3ccc([N+](=O)[O-])s3)n2)C(C)(C)C1 classified in this test? active

How was O=C(NC1=NC2C=CC([N+](=O)[O-])=CC2S1)C(=O)Nn1c(S)nc2ccccc2c1=O (centres undefined) classified in this test? inactive
